- tgt: cMet-Fc (HGFR ectodomain fused to human IgG1 Fc) (human, UniProt P08581 25-932)
- Sequence (P08581 25-932): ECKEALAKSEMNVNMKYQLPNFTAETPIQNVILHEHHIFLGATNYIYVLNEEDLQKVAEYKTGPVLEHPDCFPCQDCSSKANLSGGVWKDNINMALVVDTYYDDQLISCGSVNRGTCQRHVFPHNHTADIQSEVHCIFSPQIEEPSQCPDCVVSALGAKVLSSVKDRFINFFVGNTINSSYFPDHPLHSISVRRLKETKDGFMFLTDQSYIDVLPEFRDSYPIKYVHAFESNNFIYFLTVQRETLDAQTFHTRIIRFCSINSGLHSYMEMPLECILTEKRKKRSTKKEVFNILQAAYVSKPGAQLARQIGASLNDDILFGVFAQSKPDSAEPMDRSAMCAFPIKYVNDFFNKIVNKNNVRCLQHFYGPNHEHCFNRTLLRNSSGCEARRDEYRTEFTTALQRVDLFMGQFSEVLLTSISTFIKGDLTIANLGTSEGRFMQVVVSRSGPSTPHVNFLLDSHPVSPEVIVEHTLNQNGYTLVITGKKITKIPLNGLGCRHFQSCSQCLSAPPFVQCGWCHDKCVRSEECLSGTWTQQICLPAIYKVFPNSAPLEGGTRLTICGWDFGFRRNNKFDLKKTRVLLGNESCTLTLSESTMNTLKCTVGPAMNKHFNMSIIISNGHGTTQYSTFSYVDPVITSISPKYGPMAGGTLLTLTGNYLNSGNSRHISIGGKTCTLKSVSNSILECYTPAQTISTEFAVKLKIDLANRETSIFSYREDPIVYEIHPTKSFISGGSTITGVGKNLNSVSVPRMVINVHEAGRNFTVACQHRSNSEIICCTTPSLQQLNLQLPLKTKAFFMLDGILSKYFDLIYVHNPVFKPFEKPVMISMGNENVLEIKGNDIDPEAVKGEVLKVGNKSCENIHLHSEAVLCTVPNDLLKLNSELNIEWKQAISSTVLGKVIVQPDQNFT
- assay_notes: competition filter binding; vs 5'-32P-trCLN3; ~50 nM cMet; 1x PBS pH 7.4, 2 mM MgCl2, 0.1 mg/mL E. coli tRNA, 0.25 mg/mL BSA, 37 C, 30 min; ~25 fmol 32P-trCLN3, ~50 nM cMet, 25 uL, nitrocellulose filter
- experimental_setup: protein: commercial; two predicted intramolecular G-quadruplexes
assay_endpoint: pIC50
The meaning of pIC50 here: minus log10 of the concentration in molar units.

Ask | pIC50 lookup needed for TGGATGGTAGCTCGGTCGGGGTGGGTGGGTTGGCAAGTCT (structured_DNA) [trCLN3] , thanks.
Reply | 7.25
